# assayed.target: T1, human PD-1 dimer (human PD-1-mFc or human PD-1-hFc) (human, UniProt Q15116 25-170)
# T1 construct: also called hPD-1-mFc; hPD1-hFc
# T1 sequence (Q15116 25-170 C93S): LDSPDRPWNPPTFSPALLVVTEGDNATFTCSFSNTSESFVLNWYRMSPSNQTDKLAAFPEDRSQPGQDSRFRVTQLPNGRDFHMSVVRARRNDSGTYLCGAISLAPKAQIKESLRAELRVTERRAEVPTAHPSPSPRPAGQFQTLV
# assay.info: SPR, mAb captured, 25C;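 note: surface plasmon resonance on Biacore, PD-1 flowed over captured anti-PD-1 antibodies, rate constants from a 1:1 binding model fit, KD taken as kd/ka and t½ as ln2/(60·kd)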
Criterion: kon meeting or surpassing 100000 M⁻¹ s⁻¹. Met: satisfied. Not met: not satisfied.

Ask | Hi, just wondering whether H2aM7791N (antibody, mouse IgG2a, V domains shown, Human variable regions, mouse IgG2a Fc; also called H2M7791N) VH: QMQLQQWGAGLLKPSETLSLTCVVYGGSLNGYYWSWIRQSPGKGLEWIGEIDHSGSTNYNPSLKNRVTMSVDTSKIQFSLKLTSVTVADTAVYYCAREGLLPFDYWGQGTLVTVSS VL: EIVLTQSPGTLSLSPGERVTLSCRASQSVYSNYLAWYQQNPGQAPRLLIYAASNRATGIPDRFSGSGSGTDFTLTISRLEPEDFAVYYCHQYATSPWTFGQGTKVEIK shows kon of 100000 M⁻¹ s⁻¹ or higher.
Reply | not satisfied

Ask | Hi, just wondering whether H4H7795N2 (antibody, human IgG4 S228P, kappa, V domains shown) VH: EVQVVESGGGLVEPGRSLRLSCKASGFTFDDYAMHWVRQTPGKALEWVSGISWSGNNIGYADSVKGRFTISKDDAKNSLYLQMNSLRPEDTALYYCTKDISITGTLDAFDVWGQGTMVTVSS VL: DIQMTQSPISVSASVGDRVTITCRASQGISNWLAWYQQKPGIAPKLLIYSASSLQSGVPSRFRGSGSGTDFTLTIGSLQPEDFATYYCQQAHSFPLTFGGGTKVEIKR shows kon of 100000 M⁻¹ s⁻¹ or higher.
Reply | satisfied

Ask | Hi, just wondering whether H2aM7796N (antibody, mouse IgG2a, V domains shown, Human variable regions, mouse IgG2a Fc; also called H2M7796N) VH: QVQLVESGGGVVQPGRSLRLSCAASGFTFSSYGMHWVRQAPGKGLEWVAIIWSDGDSEYNLDSVKGRFTISRDNSKNTLYLQMNSLRVEDSAVYYCARDRDLEDIWGQGTMVTVSS VL: DIQMTQSPSSLSASVGDRVTITCRASQGIRNDLGWYQQKPGKAPKRLIYAASNLQSGVPSRFSGSGSGTEFTLTISSLQPEDFATYYCLQHNSYPLTFGGGTKVEIK shows kon of 100000 M⁻¹ s⁻¹ or higher.
Reply | not satisfied

Next:
Ask | Hi, just wondering whether H1M7800N (antibody, mouse IgG1, V domains shown, Human variable regions, mouse IgG1 Fc) VH: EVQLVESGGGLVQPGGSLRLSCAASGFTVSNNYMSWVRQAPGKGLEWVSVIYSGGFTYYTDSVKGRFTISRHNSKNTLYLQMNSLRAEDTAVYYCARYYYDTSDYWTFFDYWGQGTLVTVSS VL: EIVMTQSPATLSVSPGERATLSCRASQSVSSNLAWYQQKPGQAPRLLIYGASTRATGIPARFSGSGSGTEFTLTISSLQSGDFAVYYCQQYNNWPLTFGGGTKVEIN shows kon of 100000 M⁻¹ s⁻¹ or higher.
Reply | satisfied

Ask | Hi, just wondering whether H2aM7795N (antibody, mouse IgG2a, V domains shown, Human variable regions, mouse IgG2a Fc; also called H2M7795N) VH: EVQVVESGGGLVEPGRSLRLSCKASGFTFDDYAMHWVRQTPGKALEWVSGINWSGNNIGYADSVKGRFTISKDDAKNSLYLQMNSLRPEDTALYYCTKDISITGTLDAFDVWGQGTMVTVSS VL: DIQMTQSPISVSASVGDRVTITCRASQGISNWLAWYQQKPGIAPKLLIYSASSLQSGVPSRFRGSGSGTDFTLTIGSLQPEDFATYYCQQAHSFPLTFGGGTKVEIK shows kon of 100000 M⁻¹ s⁻¹ or higher.
Reply | satisfied

Ask | Hi, just wondering whether H4H7798N (antibody, human IgG4 S228P, kappa, V domains shown) VH: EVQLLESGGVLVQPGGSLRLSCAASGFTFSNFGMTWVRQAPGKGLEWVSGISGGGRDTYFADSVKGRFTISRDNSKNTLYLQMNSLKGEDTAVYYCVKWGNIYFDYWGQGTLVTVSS VL: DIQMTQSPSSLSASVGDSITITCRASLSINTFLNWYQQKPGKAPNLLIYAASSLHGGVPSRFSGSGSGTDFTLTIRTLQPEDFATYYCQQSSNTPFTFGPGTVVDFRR shows kon of 100000 M⁻¹ s⁻¹ or higher.
Reply | satisfied

Ask | Hi, just wondering whether H1M7789N (antibody, mouse IgG1, V domains shown, Human variable regions, mouse IgG1 Fc) VH: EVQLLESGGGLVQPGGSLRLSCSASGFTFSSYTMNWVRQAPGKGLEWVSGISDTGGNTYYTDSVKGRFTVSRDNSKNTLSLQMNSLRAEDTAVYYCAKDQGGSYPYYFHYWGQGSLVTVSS VL: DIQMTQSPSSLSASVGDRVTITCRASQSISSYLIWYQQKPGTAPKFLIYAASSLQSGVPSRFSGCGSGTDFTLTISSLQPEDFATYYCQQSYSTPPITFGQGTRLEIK shows kon of 100000 M⁻¹ s⁻¹ or higher.
Reply | not satisfied
